This collection of values is drawn from the supplement of paper PMC10307832.

- Test system: PC-14
- protocol-description: relative viability (nuclei count vs DMSO), 5 days (fraction); higher = more cells survive
- test-settings: first compound 8 µM
Reported relative viability values follow for various molecules

| molecule | relative viability |
| --- | --- |
| Nc1cccc2c1CN(C1CCC(=O)NC1=O)C2=O (stereo not given) [Lenalidomide] + O=C(CCCCCCC(=O)Nc1ccccc1)NO [Vorinostat] (partner 1 µM) | 0.922 |
| Nc1cccc2c1CN(C1CCC(=O)NC1=O)C2=O (stereo not given) [Lenalidomide] + Cc1nc(Nc2ncc(C(=O)Nc3c(C)cccc3Cl)s2)cc(N2CCN(CCO)CC2)n1 [Dasatinib] (partner 0.075 µM) | 0.304 |
| Nc1cccc2c1CN(C1CCC(=O)NC1=O)C2=O (stereo not given) [Lenalidomide] + CC(=O)c1c(C)c2cnc(Nc3ccc(N4CCNCC4)cn3)nc2n(C2CCCC2)c1=O [Palbociclib] (partner 0.5 µM) | 0.685 |
| Nc1cccc2c1CN(C1CCC(=O)NC1=O)C2=O (stereo not given) [Lenalidomide] + C[C@@H](Oc1cc(-c2cnn(C3CCNCC3)c2)cnc1N)c1c(Cl)ccc(F)c1Cl [Crizotinib] (partner 1 µM) | 0.914 |
| Nc1cccc2c1CN(C1CCC(=O)NC1=O)C2=O (stereo not given) [Lenalidomide] + COc1cc2c(Oc3ccc(NC(=O)C4(C(=O)Nc5ccc(F)cc5)CC4)cc3F)ccnc2cc1OCCCN1CCOCC1 [Foretinib] (partner 0.25 µM) | 0.982 |
